Data origin: ChEMBL document CHEMBL1145447

Target: Delta-type opioid receptor (Homo sapiens)
Assay: Antagonist activity at human delta opioid receptor expressed in CHO cells by [35S]GTP-gamma-S binding assay
Assay type: functional, cell-based
Quick reference for Ke among some compounds

Here is how some compounds turned out for Ke.
>>> measurement("COC(=O)[C@@H]1C[C@H](OC(C)=O)C(=O)[C@H]2[C@@]1(C)CC[C@H]1C(=O)O[C@H](C3=CC(=O)OC3O)C[C@]21C (stereo not given in full)")
"2.83 µM"
>>> measurement("COC(=O)[C@@H]1C[C@H](OC(C)=O)C(=O)[C@H]2[C@@]1(C)CC[C@H]1C(=O)O[C@H](C3=C[C@@H](OC)O[C@H]3OC)C[C@]21C")
"1.28 µM"
>>> measurement("COC(=O)[C@@H]1C[C@H](OC(C)=O)C(=O)[C@H]2[C@@]1(C)CC[C@H]1C(=O)O[C@H]([C@@H]3C[C@@H](OC)O[C@@H]3OC)C[C@]21C")
"> 10 µM"
>>> measurement("COC(=O)[C@@H]1C[C@H](OC(C)=O)C(=O)[C@H]2[C@@]1(C)CC[C@H]1C(=O)O[C@H](C3=C[C@@H](OC)O[C@@H]3OC)C[C@]21C")
"3.28 µM"

Next item in the queue.
Bench note: what Ke did COC(=O)[C@@H]1C[C@H](OC(C)=O)C(=O)[C@@H]2[C@@]3(C)C[C@@H](c4nc(C)no4)OC(=O)[C@H]3CC[C@]21C show?
4.23 µM

###

Target: UniProtKB P41145
Assay: Displacement of [125I]IOXY from human kappa opioid receptor expressed in CHO cells
Type: cell-based
// boundary case: Ki equal to 40 nM maps to False; strictly smaller maps to True

Worked set:
>>> group("COC(=O)[C@@H]1C[C@H](OC(C)=O)C(=O)[C@H]2[C@@]1(C)CC[C@H]1C(=O)O[C@H](C3=C[C@@H](OC)O[C@@H]3OC)C[C@]21C")
"False"
>>> group("COC(=O)[C@@H]1C[C@H](OC(C)=O)C(=O)[C@H]2[C@@]1(C)CC[C@H]1C(=O)OCC[C@]21C")
"False"
>>> group("COC(=O)[C@@H]1C[C@H](OC(C)=O)C(=O)[C@H]2[C@@]1(C)CC[C@H]1C(=O)O[C@H]([C@@H]3C[C@@H](OC)O[C@@H]3OC)C[C@]21C")
"True"

Let's switch to this molecule now.
Check if Ki falls below 40 nM for COC(=O)[C@@H]1C[C@H](OC(C)=O)C(=O)[C@H]2[C@@]1(C)CC[C@H]1C(=O)O[C@H](C3=CC(OC)OC3OC)C[C@]21C (stereo not given in full) .
False

###

Quick reference for Ki among some molecules
Target: Mu-type opioid receptor (Homo sapiens, UniProt P35372)
Sequence (P35372 whole entry): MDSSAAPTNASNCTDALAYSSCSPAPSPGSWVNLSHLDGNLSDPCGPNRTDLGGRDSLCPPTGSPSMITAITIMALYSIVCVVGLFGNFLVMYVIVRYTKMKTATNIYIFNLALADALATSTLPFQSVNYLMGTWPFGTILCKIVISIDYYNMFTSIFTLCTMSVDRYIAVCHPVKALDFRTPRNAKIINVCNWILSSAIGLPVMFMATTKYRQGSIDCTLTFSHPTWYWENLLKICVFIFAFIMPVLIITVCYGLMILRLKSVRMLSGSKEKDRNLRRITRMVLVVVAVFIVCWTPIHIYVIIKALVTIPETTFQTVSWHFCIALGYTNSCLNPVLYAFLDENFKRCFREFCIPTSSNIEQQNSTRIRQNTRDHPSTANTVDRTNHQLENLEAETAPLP
Assay: Antagonist activity at human mu opioid receptor expressed in CHO cells by [35S]GTP-gamma-S binding assay
Type: functional, cell-based
A number alone suffices; assume nM.

>>> measurement("COC(=O)[C@@H]1C[C@H](OC(C)=O)C(=O)[C@H]2[C@@]1(C)CC[C@H]1C(=O)O[C@H](C3=C[C@@H](OC)O[C@@H]3OC)C[C@]21C")
2320
>>> measurement("COC(=O)[C@@H]1C[C@H](OC(C)=O)C(=O)[C@@H]2[C@@]3(C)C[C@@H](c4nc(C)no4)OC(=O)[C@H]3CC[C@]21C")
1530
>>> measurement("COC(=O)[C@@H]1C[C@H](OC(C)=O)C(=O)[C@H]2[C@@]1(C)CC[C@H]1C(=O)O[C@H](C3=C[C@@H](OC)O[C@H]3OC)C[C@]21C")
2930

Bench note: what Ki did COC(=O)[C@@H]1C[C@H](OC(C)=O)C(=O)[C@H]2[C@@]1(C)CC[C@H]1C(=O)O[C@H](c3nc(C)no3)C[C@]21C show?
430

Input COC(=O)[C@@H]1C[C@H](OC(C)=O)C(=O)[C@H]2[C@@]1(C)CC[C@H]1C(=O)O[C@H]([C@@H]3C[C@@H](OC)O[C@@H]3OC)C[C@]21C
1370

###

Molecular target: Kappa-type opioid receptor (Homo sapiens, UniProt P41145)
Sequence (P41145 whole entry): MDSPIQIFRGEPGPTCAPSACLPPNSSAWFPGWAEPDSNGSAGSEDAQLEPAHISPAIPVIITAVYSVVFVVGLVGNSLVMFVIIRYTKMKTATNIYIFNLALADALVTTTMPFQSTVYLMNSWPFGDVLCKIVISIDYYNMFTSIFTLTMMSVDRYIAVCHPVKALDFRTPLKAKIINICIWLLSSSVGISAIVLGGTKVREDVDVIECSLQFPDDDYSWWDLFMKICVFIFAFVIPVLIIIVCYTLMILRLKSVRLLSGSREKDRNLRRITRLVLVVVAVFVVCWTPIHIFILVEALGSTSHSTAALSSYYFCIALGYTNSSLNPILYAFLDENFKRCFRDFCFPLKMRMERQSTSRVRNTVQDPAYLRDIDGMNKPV
Experiment: Antagonist activity at human kappa opioid receptor expressed in CHO cells by [35S]GTP-gamma-S binding assay
Format: functional, cell-based
// boundary case: Ke equal to 6000 nM maps to NO; strictly smaller maps to YES

Worked set:
>>> group("COC(=O)[C@@H]1C[C@H](OC(C)=O)C(=O)[C@@H]2[C@@]3(C)C[C@@H](c4nc(C)no4)OC(=O)[C@H]3CC[C@]21C")
"YES"
>>> group("COC(=O)[C@@H]1C[C@H](OC(C)=O)C(=O)[C@H]2[C@@]1(C)CC[C@H]1C(=O)O[C@H](C3=CC(=O)OC3O)C[C@]21C (stereo not given in full)")
"YES"
>>> group("COC(=O)[C@@H]1C[C@H](OC(C)=O)C(=O)[C@H]2[C@@]1(C)CC[C@H]1C(=O)O[C@H](C3=C[C@@H](OC)O[C@@H]3OC)C[C@]21C")
"NO"

Check if Ke falls below 6000 nM for COC(=O)[C@@H]1C[C@H](OC(C)=O)C(=O)[C@H]2[C@@]1(C)CC[C@H]1C(=O)O[C@H](c3nc(C)no3)C[C@]21C .
YES

Input COC(=O)[C@@H]1C[C@H](OC(C)=O)C(=O)[C@H]2[C@@]1(C)CC[C@H]1C(=O)O[C@H](C3=C[C@@H](OC)O[C@H]3OC)C[C@]21C
YES

###

Target: Mu-type opioid receptor (Homo sapiens)
Experiment: Displacement of [125I]IOXY from human mu opioid receptor expressed in CHO cells
Format: cell-based
metric.name: Ki

Here is how some compounds turned out for Ki.
>>> measurement("COC(=O)[C@@H]1C[C@H](OC(C)=O)C(=O)[C@@H]2[C@@]3(C)C[C@@H]([C@]4(O)[C@@H](OC)O[C@@H](OC)[C@H]4O)CC(=O)[C@@H]3CC[C@]21C [SALVINICIN B]")
"> 10 µM"
>>> measurement("COC(=O)[C@@H]1C[C@H](OC(C)=O)C(=O)[C@H]2[C@@]1(C)CC[C@H]1C(=O)O[C@H]([C@]3(O)[C@H](OC)O[C@H](OC)[C@H]3O)C[C@]21C [SALVINICIN A]")
"> 10 µM"
>>> measurement("COC(=O)[C@@H]1C[C@H](OC(C)=O)C(=O)[C@H]2[C@@]1(C)CC[C@H]1C(=O)O[C@H](C3=CC(OC)OC3OC)C[C@]21C (stereo not given in full)")
"> 10 µM"
>>> measurement("COC(=O)[C@@H]1C[C@H](OC(C)=O)C(=O)[C@H]2[C@@]1(C)CC[C@H]1C(=O)OC([C@]3(O)[C@@H](OC)O[C@@H](OC)[C@H]3OC(C)=O)C[C@]21C (stereo not given in full)")
"> 10 µM"

Next item in the queue.
Bench note: what Ki did COC(=O)[C@@H]1C[C@H](OC(C)=O)C(=O)[C@H]2[C@@]1(C)CC[C@H]1C(=O)O[C@H](c3ccoc3Br)C[C@]21C show?
1.45 µM

###

Molecular target: Opioid receptors; delta & kappa (Homo sapiens) (UniProt P41145+P41143)
Sequence (P41143 whole entry, looked up): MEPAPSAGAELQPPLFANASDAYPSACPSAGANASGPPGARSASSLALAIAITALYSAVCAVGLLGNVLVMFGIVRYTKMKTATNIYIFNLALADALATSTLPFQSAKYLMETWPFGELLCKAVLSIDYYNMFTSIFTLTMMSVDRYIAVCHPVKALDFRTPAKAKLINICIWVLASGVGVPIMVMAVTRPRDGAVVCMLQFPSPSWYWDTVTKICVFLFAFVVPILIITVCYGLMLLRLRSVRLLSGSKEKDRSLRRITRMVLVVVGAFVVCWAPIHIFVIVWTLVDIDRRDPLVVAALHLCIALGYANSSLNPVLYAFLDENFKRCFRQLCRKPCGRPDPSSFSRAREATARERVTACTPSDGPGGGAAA
Sequence (P41145 whole entry, looked up): as the sequence (P41145 whole entry) above
Assay: Selectivity for kappa opioid receptor over delta opioid receptor
Format: protein assay
metric.name: Ratio Ki

>>> measurement("COC(=O)[C@@H]1C[C@H](OC(C)=O)C(=O)[C@H]2[C@@]1(C)CC[C@H]1C(=O)O[C@H]([C@@H]3C[C@@H](OC)O[C@H]3OC)C[C@]21C")
"> 80"
>>> measurement("COC(=O)[C@@H]1C[C@H](OC(C)=O)C(=O)[C@@H]2[C@@](C)(CCC3CCOC3)[C@H](C(=O)O)CC[C@]21C (stereo partly drawn)")
"> 10"
>>> measurement("COC(=O)[C@@H]1C[C@H](OC(C)=O)C(=O)[C@H]2[C@@]1(C)CC[C@H]1C(=O)O[C@H](C3=NCCO3)C[C@]21C")
"> 30"
>>> measurement("COC(=O)[C@@H]1C[C@H](OC(C)=O)C(=O)[C@H]2[C@@]1(C)CC[C@H]1C(=O)O[C@H]([C@]3(O)[C@H](OC)O[C@H](OC)[C@H]3O)C[C@]21C [SALVINICIN A]")
"> 26"
>>> measurement("COC(=O)[C@@H]1C[C@H](OC(C)=O)C(=O)[C@H]2[C@@]1(C)CC[C@H]1C(=O)O[C@H](C3CC(OC)OC3OC)C[C@]21C (stereo partly drawn)")
"> 250"
>>> measurement("COC(=O)[C@@H]1C[C@H](OC(C)=O)C(=O)[C@@H]2[C@@]3(C)C[C@@H]([C@]4(O)[C@@H](OC)O[C@@H](OC)[C@H]4O)CC(=O)[C@@H]3CC[C@]21C [SALVINICIN B]")
1.4
>>> measurement("COC(=O)[C@@H]1C[C@H](OC(C)=O)C(=O)[C@H]2[C@@]1(C)CC[C@H]1C(=O)O[C@H]([C@@H]3C[C@@H](OC)O[C@@H]3OC)C[C@]21C")
"> 400"
>>> measurement("COC(=O)[C@@H]1C[C@H](OC(C)=O)C(=O)[C@H]2[C@@]1(C)CC[C@H]1C(=O)O[C@H](C3=CC(OC)OC3OC)C[C@]21C (stereo partly drawn)")
"> 20"
>>> measurement("COC(=O)[C@@H]1C[C@H](OC(C)=O)C(=O)[C@H]2[C@@]1(C)CC[C@H]1C(=O)O[C@H](C3=C[C@@H](OC)O[C@@H]3OC)C[C@]21C")
"> 23"
>>> measurement("COC(=O)[C@@H]1C[C@H](OC(C)=O)C(=O)[C@@H]2[C@@]3(C)C[C@@H](c4nc(C)no4)OC(=O)[C@H]3CC[C@]21C")
"> 10"

Bench note: what Ratio Ki did COC(=O)[C@@H]1C[C@H](OC(C)=O)C(=O)[C@H]2[C@@]1(C)CC[C@H]1C(=O)O[C@H](c3nc(C)no3)C[C@]21C show?
> 170

Input COC(=O)[C@@H]1C[C@H](OC(C)=O)C(=O)[C@H]2[C@@]1(C)CC[C@H]1C(=O)OCC[C@]21C
> 3

Input COC(=O)[C@@H]1C[C@H](OC(C)=O)C(=O)[C@H]2[C@@]1(C)CC[C@H]1C(=O)O[C@H](C3=C[C@@H](OC)O[C@H]3OC)C[C@]21C
> 55
